Molecular target: HCV NS3-4A Protease Genotype 1b (Hepatitis C virus genotype 1b, UniProt Q9WMX2)
Construct: recombinant HCV NS3-4A proteases
Sequence (Q9WMX2 1658-1711): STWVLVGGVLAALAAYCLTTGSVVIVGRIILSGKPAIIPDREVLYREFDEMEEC
Sequence (Q9WMX2 1027-1657): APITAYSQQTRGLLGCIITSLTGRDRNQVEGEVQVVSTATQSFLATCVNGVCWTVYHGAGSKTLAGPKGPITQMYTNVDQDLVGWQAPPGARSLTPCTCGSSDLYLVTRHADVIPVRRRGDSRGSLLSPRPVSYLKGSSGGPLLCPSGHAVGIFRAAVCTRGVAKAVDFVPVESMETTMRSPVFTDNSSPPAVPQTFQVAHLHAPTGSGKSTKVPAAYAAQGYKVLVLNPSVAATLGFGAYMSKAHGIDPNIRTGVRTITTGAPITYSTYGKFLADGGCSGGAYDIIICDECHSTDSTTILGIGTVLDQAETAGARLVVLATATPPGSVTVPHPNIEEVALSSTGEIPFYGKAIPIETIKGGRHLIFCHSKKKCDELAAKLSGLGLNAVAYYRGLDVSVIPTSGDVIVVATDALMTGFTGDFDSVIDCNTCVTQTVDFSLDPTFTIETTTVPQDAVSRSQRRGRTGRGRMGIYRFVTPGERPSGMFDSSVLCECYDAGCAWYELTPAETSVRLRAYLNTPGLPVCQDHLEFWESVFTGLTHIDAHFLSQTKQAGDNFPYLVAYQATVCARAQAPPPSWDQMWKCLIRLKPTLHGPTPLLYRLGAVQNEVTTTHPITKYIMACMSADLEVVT
Test: HCV protease assay, recombinant NS3-4A genotype 1b
Conditions: mean ± SD, 3 experiments
MEASURE: IC50 (nM)
Quick reminder: number only, in nM, skip the unit.

Looking up COc1ccc2c(O[C@H]3CCN4C(=O)N(C)CCCC/C=C\[C@@H]5C[C@@]5(C(=O)NS(=O)(=O)C5(C)CC5)NC(=O)[C@@H]4C3)cc(-c3nc(C(F)(F)F)cs3)nc2c1C , I found its IC50 recorded as 1.2

---

Biological target: human CYP450 2B6 (Homo sapiens, UniProt P20813)
Sequence (P20813 whole entry): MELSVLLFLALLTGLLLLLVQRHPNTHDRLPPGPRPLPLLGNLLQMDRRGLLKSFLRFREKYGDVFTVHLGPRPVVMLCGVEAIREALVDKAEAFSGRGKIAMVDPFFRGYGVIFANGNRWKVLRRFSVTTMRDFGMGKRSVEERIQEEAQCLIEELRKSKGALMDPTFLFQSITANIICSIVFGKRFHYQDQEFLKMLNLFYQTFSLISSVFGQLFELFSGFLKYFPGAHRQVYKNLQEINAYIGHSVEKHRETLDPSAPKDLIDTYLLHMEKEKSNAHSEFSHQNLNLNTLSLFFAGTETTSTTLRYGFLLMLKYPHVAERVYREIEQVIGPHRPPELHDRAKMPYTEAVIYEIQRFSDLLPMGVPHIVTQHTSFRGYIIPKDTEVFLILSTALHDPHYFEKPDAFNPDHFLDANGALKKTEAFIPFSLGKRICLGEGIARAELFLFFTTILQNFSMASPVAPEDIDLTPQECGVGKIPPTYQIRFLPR
pIC50: −log10 of the molar value.
MEASURE: pIC50

Recorded pIC50 for COc1ccc2c(O[C@H]3CCN4C(=O)N(C)CCCC/C=C\[C@@H]5C[C@@]5(C(=O)NS(=O)(=O)C5(C)CC5)NC(=O)[C@@H]4C3)cc(-c3nc(C(F)(F)F)cs3)nc2c1C [Compound 52] on human CYP450 2B6 (Homo sapiens, UniProt P20813) was ≤ 5.00

Values from patent US8993595B2
